tested on: CAKI-1; assay: NCI tumour cell line growth inhibition, 48 h
Active and inactive are the calls of the source. Rule as the data show it: active = GI50 up to about 1.1 µM and inactive = higher.
recorded-metric: GI50

>>> value("O=c1[nH]nc(Cc2ccc(Cl)cc2)n1O")
"> 100 µM (inactive)"
>>> value("NCCCc1nonc1C(=O)O")
"> 100 µM (inactive)"
>>> value("CC(C)(CO)CNc1cc(=O)[nH]c(N)n1")
"> 100 µM (inactive)"
>>> value("C=CCc1ccccc1CC1(OCC)OC(=O)c2ccccc21 (centres undefined)")
"> 100 µM (inactive)"
>>> value("Nc1ncnc2c1ncn2CC(O)C(=O)O (centres undefined)")
"> 100 µM (inactive)"
>>> value("CSC1=C(C(=O)Nc2ccc(C)cc2)C(N)=NC1=O")
"> 100 µM (inactive)"
>>> value("CN1C(=O)CC2CCC(=O)N2c2cccnc21 (centres undefined)")
"> 100 µM (inactive)"
>>> value("COC(=O)C(O)P(=O)(OC)OC (centres undefined)")
"> 100 µM (inactive)"
>>> value("COC(=O)C(C)(/N=C/c1ccccc1)c1ccccc1 (centres undefined)")
"> 100 µM (inactive)"
>>> value("CC(=O)Nc1ncc2c(n1)-c1ccccc1OC2c1ccccc1 (centres undefined)")
"26.1 µM (inactive)"
>>> value("O=C1CCC(=O)C(C(=O)CCC(=O)Nc2ccc(Cl)cc2)C1 (centres undefined)")
"> 100 µM (inactive)"
>>> value("c1ccc(C2=NOC3(c4ccccc4)SC4CCCCC4CN23)cc1 (centres undefined)")
"19.5 µM (inactive)"
>>> value("C=CCSC1=N/C(=C\\c2ccc(C)cc2)C(=O)N1CC=C")
"80 µM (inactive)"
>>> value("Cc1ncc(CO)c(CN)c1O")
"> 100 µM (inactive)"
>>> value("CC(=O)Nc1ccc(S(=O)(=O)Nc2nnc(S(N)(=O)=O)s2)cc1")
"> 100 µM (inactive)"
>>> value("COc1cc(/C=C/C(=O)c2cccc3ccccc23)cc(OC)c1OC")
"7.5 µM (inactive)"
>>> value("c1ccc(-c2nnc(-c3nn(-c4ccccc4)c4nc5ccccc5nc34)o2)cc1")
"> 100 µM (inactive)"
>>> value("CCSc1nc2cccc([N+](=O)[O-])c2n1CC")
"> 100 µM (inactive)"
>>> value("CCOC(=O)c1c(N2CCOCC2)ncn(-c2cccc(Cl)c2)c1=O")
"> 100 µM (inactive)"
>>> value("Cc1nc2ccccc2c(=O)n1/N=C(\\N=N\\c1ccccc1Cl)c1ccccc1")
"23.4 µM (inactive)"
>>> value("O=C1C(Cl)=CC2(C=C1Cl)CCNC1=C2C(=O)c2nc[nH]c2C1=O")
"64.4 µM (inactive)"
>>> value("CCCCCCCCCCCCCC(=O)O[C@H]1CC[C@H](NC(=O)[C@H](OC)[C@H](O)[C@@H](O)[C@H](O)/C=C/C(C)C)C(=O)NC1 [BENGAMIDE A]")
"0.292 µM (active)"
>>> value("O=C(CBr)c1ccc2cc(Br)c3ccccc3c2c1")
"18.2 µM (inactive)"
>>> value("COc1cccc(C2CC(C)(N3CCCC3)Oc3cc4c(cc32)OCO4)c1O (centres undefined)")
"31.7 µM (inactive)"

Where do the numbers come from? From ChEMBL document CHEMBL1201862.
